Parameter: T/C. Scope: all listed entries.
- Tested on: MX-1 breast xenograft, nude mice, tumor weight T/C
- experimentNotes: NCI In Vivo Anticancer Drug Screen. Data for tumor model Human Mammary Carcinoma MX-1 Xenograft (intrarenal inoculation) in NU/NU Swiss (nude) mice
- measurementConditions: endpoint: mean tumor weight change; dose: 50.0 mg/kg/injection; schedule: Q01DX010 (sc); vehicle: Klucel (hydroxypropylcellulose) (HPC); higher = larger tumour
Records with an inconclusive call do not appear.
assayEndpoint: T/C

[[record]]
compound = "C[N+](C)(C)c1cc2c(nn1)Nc1ccccc1S2"
assayendpoint = "T/C"
resultvalue = "74 % of control"

[[record]]
compound = "CNC(=O)OCc1c(COC(=O)NC)c(C)n(-c2ccc(OC)cc2)c1C"
assayendpoint = "T/C"
resultvalue = "41 % of control"

[[record]]
compound = "CCOC(=O)Nc1cc2c(c(N)n1)N=C(CN(C)c1ccccc1)CN2"
assayendpoint = "T/C"
resultvalue = "70 % of control"

